- testSystem: TdT L397A (human, UniProt P04053 1-509, L397A)
- Sequence (P04053 whole entry L397A): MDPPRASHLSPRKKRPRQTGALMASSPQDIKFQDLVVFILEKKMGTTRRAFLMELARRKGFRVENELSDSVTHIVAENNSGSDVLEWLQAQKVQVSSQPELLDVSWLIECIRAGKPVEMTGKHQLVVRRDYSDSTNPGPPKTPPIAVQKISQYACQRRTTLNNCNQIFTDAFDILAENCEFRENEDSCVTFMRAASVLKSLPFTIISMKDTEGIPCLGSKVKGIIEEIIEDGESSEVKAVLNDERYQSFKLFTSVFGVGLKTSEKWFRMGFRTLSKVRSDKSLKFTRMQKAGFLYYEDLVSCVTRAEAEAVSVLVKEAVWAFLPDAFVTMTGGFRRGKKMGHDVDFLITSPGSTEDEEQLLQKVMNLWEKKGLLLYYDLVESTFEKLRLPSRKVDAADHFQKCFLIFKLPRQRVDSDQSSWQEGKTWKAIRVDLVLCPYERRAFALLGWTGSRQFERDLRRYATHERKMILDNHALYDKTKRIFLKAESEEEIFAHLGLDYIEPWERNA
- assayNotes: EMSA; 5 mM MgCl2; Hill h fixed at 2; EMSA: 50 mM Tris-HCl pH 8.0, 5 mM MgCl2, 7% glycerol; 0.5 uM FAM-M44, 0.06-10 uM protein; 10 min at 37 C then 5 min at 0 C; gel at 4 C
- testSettings: protein: recombinant; chain copies: 2; label: 5'-FAM; single strand
recordedMetric: pKd
Worth noting: pKd values are minus log10 of concentrations stated in mol/L.

binder ATGCTATGGATTGATGTGACTAAGGTTGGAATGATGTGAAGAGA (ssDNA) [FAM-M44] , pKd observed: 6.01

These entries and their values trace back to paper PMC12785651.
